The measurements presented in this section are drawn from patent US6372800B1.

For each record, write down the corresponding melting point.

Illustrative cases are given below, each with its answer.
compound="CCCCCCCCCc1ccc(CCCC(N)(CO)CCO)cc1 (stereo not drawn)" result="71 to 73 °C"
compound="CCCCCCCOc1ccc(CCC(CO)(CCC)NC(=O)c2cc([N+](=O)[O-])cc([N+](=O)[O-])c2)cc1 (stereo not drawn)" result="90 to 91 °C"
compound="CCCCCCCOc1ccc(CCC(CO)(CCO)NC(=O)c2cc([N+](=O)[O-])cc([N+](=O)[O-])c2)cc1 (stereo not drawn) [Working Example 115]" result="78 to 79 °C"

Each compound below has a reported value. Please supply its melting point.
1. CCCCCCCOc1ccc(CCC(N)(CC)CO)cc1.Cl (stereo not drawn)
2. CCCCCCCc1ccc(CCCC(N)(CO)CCO)cc1 (stereo not drawn)
3. CCCCCCCC(=O)c1ccc(CCC(CCOC(C)=O)(CCOC(C)=O)NC(C)=O)cc1
4. CCCCCCCCCCCCc1ccc(CCC(CCOC(C)=O)(COC(C)=O)NC(C)=O)cc1 (stereo not drawn)
5. CCCCCCCOc1ccc(CCC(C)(CO)NC(=O)c2cc([N+](=O)[O-])cc([N+](=O)[O-])c2)cc1 (racemic)
6. CCCCCCCOc1ccc(CCC(CO)(CCO)NC(=O)c2cc([N+](=O)[O-])cc([N+](=O)[O-])c2)cc1 (stereo not drawn) [Working Example 116]

1. 108 to 110 °C
2. 68 to 71 °C
3. 83 to 86 °C
4. 75 to 77 °C
5. 150 to 151 °C
6. 77 to 79 °C

----------
test system: peripheral white blood cells; assay: Reduction of peripheral white blood cells in rats of the HvG reaction test; type: in vivo, rat; conditions: administered daily for 4 days intravenously or orally, blood from tail vein 4 days after the injection with cells
METRIC_NAME: Reduction of peripheral white blood cells, minimum effective dose (mg/kg)
One number for each entry, in mg/kg.

Illustrative cases are given below, each with its answer.
compound=CCCCCCCOc1ccc(CC[C@@](N)(CO)CCC)cc1.Cl tested_system="peripheral white blood cells" value_units=mg/kg result=3
compound="CCCCCCCOc1ccc(CCC(C)(N)CO)cc1OC (stereo not shown) [Compound of experiment 66, Hydrate]" tested_system="peripheral white blood cells" value_units=mg/kg result=3
compound="CCCCCCCCc1ccc(CCC(N)(CO)CO)cc1.Cl [FTY720, reference compound]" tested_system="peripheral white blood cells" value_units=mg/kg result=0.03
compound="CCCCCCCOc1ccc(CCC(C)(N)CO)cc1.Cl (stereo not shown)" tested_system="peripheral white blood cells" value_units=mg/kg result=0.03
compound="CCCCCCCOc1ccc(CCC(N)(CC)CO)cc1.Cl (stereo not shown)" tested_system="peripheral white blood cells" value_units=mg/kg result=0.03
compound="CCCCCCCOc1ccc(CCC(N)(CO)C(C)C)cc1.CCCCCCCOc1ccc(CCC(N)(CO)C(C)C)cc1.Cl.Cl.O (stereo not shown)" tested_system="peripheral white blood cells" value_units=mg/kg result=3

Next:
For record CCCCCCCCCc1ccc(CCCC(N)(CO)CCO)cc1 (stereo not shown) the listed Reduction of peripheral white blood cells, minimum effective dose is 0.03
